# target.desc: T1, human CD3 E&D complex protein (Sino Biological Inc., CT026H0323H) (human, UniProt P07766 23-126; P04234 22-105)
# T1 construct: bought heterodimer; also called human CD3 protein (CT026H0323H)
# assay: BLI, antibody on sensor
In this section, each of the binders is paired with its reported koff.

{"columns": ["binder", "koff, s⁻¹"],
 "data": [
  ["hzsp34.114 (antibody, human IgG1, lambda, L234A L235A, V domains shown, CDR mutant of hzsp34.24; IgG1 L234A L235A, lambda) VH: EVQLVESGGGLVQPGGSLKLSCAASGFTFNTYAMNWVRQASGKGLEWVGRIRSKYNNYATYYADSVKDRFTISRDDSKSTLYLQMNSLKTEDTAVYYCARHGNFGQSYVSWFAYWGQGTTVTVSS VL: QAVVTQEPSLTVSPGGTVTLTCRSSTGAVTTSNYANWVQQKPGQAPRGLIGGTNKRAPGVPARFSGSLLGDKAALTLLGAQPEDEAEYYCALWYRGLWVFGQGTKLTVLG", 0.000282],
  ["hzsp34.83 (antibody, human IgG1, lambda, L234A L235A, V domains shown, CDR mutant of hzsp34.24; IgG1 L234A L235A, lambda) VH: EVQLVESGGGLVQPGGSLKLSCAASGFTFNTYAMNWVRQASGKGLEWVGRIRSKANNYATYYADSVKDRFTISRDDSKSTLYLQMNSLKTEDTAVYYCARHGNFGQSYVSWFAYWGQGTTVTVSS VL: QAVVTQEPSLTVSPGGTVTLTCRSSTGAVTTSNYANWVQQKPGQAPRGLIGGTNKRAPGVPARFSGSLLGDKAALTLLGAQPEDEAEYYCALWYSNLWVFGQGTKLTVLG", 0.0002],
  ["hzsp34.116 (antibody, human IgG1, lambda, L234A L235A, V domains shown, CDR mutant of hzsp34.24; IgG1 L234A L235A, lambda) VH: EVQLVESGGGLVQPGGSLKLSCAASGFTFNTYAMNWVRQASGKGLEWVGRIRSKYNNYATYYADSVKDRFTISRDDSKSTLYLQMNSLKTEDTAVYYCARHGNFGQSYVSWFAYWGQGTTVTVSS VL: QAVVTQEPSLTVSPGGTVTLTCRSSTGAVTTSNYANWVQQKPGQAPRGLIGGTNSRAPGVPARFSGSLLGDKAALTLLGAQPEDEAEYYCALWYSDLWVFGQGTKLTVLG", 0.000914],
  ["hzsp34.110 (antibody, human IgG1, lambda, L234A L235A, V domains shown, CDR mutant of hzsp34.24; IgG1 L234A L235A, lambda) VH: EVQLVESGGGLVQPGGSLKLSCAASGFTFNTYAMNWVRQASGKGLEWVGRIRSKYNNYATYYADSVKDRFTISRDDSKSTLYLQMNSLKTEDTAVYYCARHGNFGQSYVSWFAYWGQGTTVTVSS VL: QAVVTQEPSLTVSPGGTVTLTCRSSTGAVTTSNYANWVQQKPGQAPRGLIGGTNKRAPGVPARFSGSLLGDKAALTLLGAQPEDEAEYYCALWYSGLWVFGQGTKLTVLG", 0.0002],
  ["hzsp34.82 (antibody, human IgG1, lambda, L234A L235A, V domains shown, CDR mutant of hzsp34.24; IgG1 L234A L235A, lambda) VH: EVQLVESGGGLVQPGGSLKLSCAASGFTFNTYAMNWVRQASGKGLEWVGRIRLKYNNYATYYADSVKDRFTISRDDSKSTLYLQMNSLKTEDTAVYYCARHGNFGQSYVSWFAYWGQGTTVTVSS VL: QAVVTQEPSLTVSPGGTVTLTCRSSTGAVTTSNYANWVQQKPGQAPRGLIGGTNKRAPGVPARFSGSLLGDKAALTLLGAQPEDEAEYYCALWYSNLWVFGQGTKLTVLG", 0.00168]
]}
